- Tested on: MCF-7 human breast cancer cells
- Experiment Description: cells
- Assay type: cell-based
- Condition Info: MTT assay, MCF-7; read-out: Cytotoxicity, IC50, MCF-7
Readout Name: pIC50
Remember, pIC50 is on a log scale: it is -log10 of the molar concentration.

**Q:** # query: pIC50 of entry CO[C@@H]1[C@@H](O)[C@H](O[C@@H]2[C@@H](O)[C@H](O[C@H]3[C@H](O)[C@@H](O)[C@H](O[C@H]4[C@H](O[C@H]5CC[C@]6(C)C7=CCC89C(=O)O[C@@](C)([C@@H](CCC(C)C)OC(C)=O)[C@H]8[C@@H](OC(C)=O)C[C@@]9(C)[C@@H]7CC[C@H]6C5(C)C)OC[C@@H](O[C@@H]5O[C@H](CO)[C@@H](O)[C@H](O)[C@H]5O)[C@@H]4O)O[C@@H]3C)OC[C@H]2O)O[C@H](COS(=O)(=O)[O-])[C@H]1O.[Na+] (some centres unmarked) [Cladoloside I1 (28), cladoloside I1]
**A:** 4.95

**Q:** I'd like to know its pIC50. The molecule in question is C=C(C)CC[C@@H](OC(C)=O)[C@]1(C)OC(=O)C23CC=C4[C@@H](CC[C@H]5C(C)(C)[C@@H](O[C@@H]6OC[C@@H](O[C@@H]7O[C@H](CO)[C@@H](O)[C@H](O)[C@H]7O)[C@H](O)[C@H]6O[C@@H]6O[C@H](C)[C@@H](O[C@@H]7OC[C@@H](O)[C@H](O[C@@H]8O[C@H](CO)[C@@H](O)[C@H](OC)[C@H]8O)[C@H]7O)[C@H](O)[C@H]6O)CC[C@]45C)[C@]2(C)C[C@H](OC(C)=O)[C@@H]31 (some centres unmarked) [Cladoloside B2 (12), cladoloside B2]
**A:** 4.84

---

- Test system: human erythrocytes
- Experiment Description: Hemolytic activity against human erythrocytes
- Assay type: cell-based
- Condition Info: 1 h at 37 °C
Each record is given 1 if its reported ED50, Erythrocytes (hemolytic activity) is strictly below 6000 nM. Records at or above 6000 nM are given 0.

**Q:** Below 6000 nM on ED50, Erythrocytes (hemolytic activity)? Entry C=C(C)CCC[C@]1(C)OC(=O)C23CC=C4[C@@H](CC[C@H]5C(C)(C)[C@@H](O[C@@H]6OC[C@@H](O)[C@H](O)[C@H]6O[C@@H]6O[C@H](C)[C@@H](O[C@@H]7OC[C@@H](O)[C@H](O[C@@H]8O[C@H](CO)[C@@H](O)[C@H](OC)[C@H]8O)[C@H]7O)[C@H](O)[C@H]6O)CC[C@]45C)[C@]2(C)C[C@H](OC(C)=O)[C@@H]31 (some centres unmarked) [A3 (7), cladoloside A3]
**A:** 0

**Q:** Below 6000 nM on ED50, Erythrocytes (hemolytic activity)? Entry CO[C@@H]1[C@@H](O)[C@H](O[C@@H]2[C@@H](O)[C@H](O[C@@H]3CO[C@@H](O[C@H]4CC[C@]5(C)C6=CCC78C(=O)O[C@@](C)([C@@H](CCC(C)C)OC(C)=O)[C@H]7[C@@H](OC(C)=O)C[C@@]8(C)[C@@H]6CC[C@H]5C4(C)C)[C@H](O[C@@H]4O[C@H](C)[C@@H](O[C@@H]5OC[C@@H](O)[C@H](O[C@@H]6O[C@H](CO)[C@@H](O)[C@H](OC)[C@H]6O)[C@H]5O)[C@H](O)[C@H]4O)[C@H]3O)O[C@H](C)[C@H]2O)O[C@H](CO)[C@H]1O (some centres unmarked) [Cladoloside H1 (26), Cladoloside H1]
**A:** 1

**Q:** Please let me know if C=C(C)CCC[C@]1(C)OC(=O)C23CC=C4[C@@H](CC[C@H]5C(C)(C)[C@@H](O[C@@H]6OC[C@@H](O[C@@H]7O[C@H](CO)[C@@H](O)[C@H](O[C@@H]8O[C@H](COS(=O)(=O)[O-])[C@@H](O)[C@H](OC)[C@H]8O)[C@H]7O)[C@H](O)[C@H]6O[C@@H]6O[C@H](C)[C@@H](O[C@@H]7OC[C@@H](O)[C@H](O)[C@H]7O)[C@H](O)[C@H]6O)CC[C@]45C)[C@]2(C)CC(=O)[C@@H]31.[Na+] (some centres unmarked) [Cladoloside J1 (30), Cladoloside J1] shows ED50, Erythrocytes (hemolytic activity) below 6000 nM.
**A:** 1

**Q:** Input C=C(C)CCC[C@]1(C)OC(=O)C23CC=C4[C@@H](CC[C@H]5C(C)(C)[C@@H](O[C@@H]6OC[C@@H](O[C@@H]7O[C@H](CO)[C@@H](O)[C@H](O[C@@H]8O[C@H](CO)[C@@H](O)[C@H](OC)[C@H]8O)[C@H]7O)[C@H](O)[C@H]6O[C@@H]6O[C@H](C)[C@@H](O[C@@H]7O[C@H](CO)[C@@H](O)[C@H](O[C@@H]8O[C@H](CO)[C@@H](O)[C@H](OC)[C@H]8O)[C@H]7O)[C@H](O)[C@H]6O)CC[C@]45C)[C@]2(C)CC(=O)[C@@H]31 (some centres unmarked) [Cladoloside M1 (35), cladoloside M1] ; condition: ED50, Erythrocytes (hemolytic activity) strictly below 6000 nM. Does it hold?
**A:** 1

**Q:** is_below(ED50, Erythrocytes (hemolytic activity), 6000 nM) for C=C(C)CCC[C@]1(C)OC(=O)C23CC=C4[C@@H](CC[C@H]5C(C)(C)[C@@H](O[C@@H]6OC[C@@H](O[C@@H]7O[C@H](CO)[C@@H](O)[C@H](O[C@@H]8O[C@H](CO)[C@@H](O)[C@H](OC)[C@H]8O)[C@H]7O)[C@H](O)[C@H]6O[C@@H]6O[C@H](C)[C@@H](O[C@@H]7OC[C@@H](O)[C@H](O[C@@H]8O[C@H](CO)[C@@H](O)[C@H](O)[C@H]8O)[C@H]7O)[C@H](O)[C@H]6O)CC[C@]45C)[C@]2(C)CC(=O)[C@@H]31 (some centres unmarked) [Cladoloside P2 (41), Cladoloside P2] ?
**A:** 1

**Q:** Field: below-cutoff. Rule: recorded ED50, Erythrocytes (hemolytic activity) strictly less than 6000 nM. Subject: C=C(C)CC[C@@H](OC(C)=O)[C@]1(C)OC(=O)C23CC=C4[C@@H](CC[C@H]5C(C)(C)[C@@H](O[C@@H]6OC[C@@H](O[C@@H]7O[C@H](CO)[C@@H](O)[C@H](O[C@@H]8O[C@H](CO)[C@@H](O)[C@H](OC)[C@H]8O)[C@H]7O)[C@H](O)[C@H]6O[C@@H]6O[C@H](C)[C@@H](O[C@@H]7OC[C@@H](O)[C@H](O[C@@H]8O[C@H](CO)[C@@H](O)[C@H](OC)[C@H]8O)[C@H]7O)[C@H](O)[C@H]6O)CC[C@]45C)[C@]2(C)C[C@H](O)[C@@H]31 (some centres unmarked) [C3 (16), cladoloside C3]
**A:** 0

**Q:** ED50, Erythrocytes (hemolytic activity) strictly < 6000 nM for this molecule? C=C(C)CCC[C@]1(C)OC(=O)C23CC=C4[C@@H](CC[C@H]5C(C)(C)[C@@H](O[C@@H]6OC[C@@H](O[C@@H]7O[C@H](CO)[C@@H](O)[C@H](O[C@@H]8O[C@H](COS(=O)(=O)[O-])[C@@H](O)[C@H](OC)[C@H]8O)[C@H]7O)[C@H](O)[C@H]6O[C@@H]6O[C@H](C)[C@@H](O[C@@H]7OC[C@@H](O)[C@H](O[C@@H]8O[C@H](CO)[C@@H](O)[C@H](OC)[C@H]8O)[C@H]7O)[C@H](O)[C@H]6O)CC[C@]45C)[C@]2(C)CC(=O)[C@@H]31.[Na+] (some centres unmarked) [Cladoloside L1 (33), Cladoloside L1]
**A:** 1

---

- Tested on: MCF-7 human breast cancer cells;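 note: IC50 values, including those behind the selectivity ratio, derive from formazan absorbance at 570 nm, tested in triplicate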
- Experiment Description: cells
- Type: cell-based
- Condition Info: MTT assay, MCF-7; read-out: Cytotoxicity, IC50, MCF-7
Readout Name: IC50

**Q:** Name the reported IC50 value associated with the compound C=C(C)CCC[C@]1(C)OC(=O)C23CC=C4[C@@H](CC[C@H]5C(C)(C)[C@@H](O[C@@H]6OC[C@@H](O[C@@H]7O[C@H](CO)[C@@H](O)[C@H](O[C@@H]8O[C@H](COS(=O)(=O)[O-])[C@@H](O)[C@H](OC)[C@H]8O)[C@H]7O)[C@H](O)[C@H]6O[C@@H]6O[C@H](C)[C@@H](O[C@@H]7OC[C@@H](O)[C@H](O)[C@H]7O)[C@H](O)[C@H]6O)CC[C@]45C)[C@]2(C)CC(=O)[C@@H]31.[Na+] (stereo partly shown) [Cladoloside J1 (30), Cladoloside J1]
**A:** > 20 µM

---

- Tested on: human erythrocytes
- Experiment Description: Hemolytic activity against human erythrocytes
- Assay type: cell-based
- Condition Info: 1 h at 37 °C
Readout Name: ED50, Erythrocytes (hemolytic activity) (µM)
Report the value in µM with no unit label.

**Q:** Could you tell me which ED50, Erythrocytes (hemolytic activity) is on file for CO[C@@H]1[C@@H](O)[C@H](O[C@@H]2[C@@H](O)[C@H](O[C@H]3[C@H](O)[C@@H](O)[C@H](O[C@H]4[C@H](O[C@H]5CC[C@]6(C)C7=CCC89C(=O)O[C@@](C)([C@@H](CCC(C)C)OC(C)=O)[C@H]8[C@@H](OC(C)=O)C[C@@]9(C)[C@@H]7CC[C@H]6C5(C)C)OC[C@@H](O[C@@H]5OC[C@@H](O)[C@H](O)[C@H]5O)[C@@H]4O)O[C@@H]3C)OC[C@H]2O)O[C@H](COS(=O)(=O)O)[C@H]1O (some centres unmarked) [Cladoloside S1 (2)] ?
**A:** 4.78

**Q:** I have this compound here, CO[C@@H]1[C@@H](O)[C@H](O[C@@H]2[C@@H](O)[C@H](O[C@H]3[C@H](O)[C@@H](O)[C@H](O[C@H]4[C@H](O[C@H]5CC[C@]6(C)C7=CCC89C(=O)O[C@@](C)(CCC=C(C)C)[C@H]8C(=O)C[C@@]9(C)[C@@H]7CC[C@H]6C5(C)C)OC[C@@H](O)[C@@H]4O)O[C@@H]3C)OC[C@H]2O)O[C@H](CO)[C@H]1O (some centres unmarked) [A4 (8), cladoloside A4] , and I need its recorded ED50, Erythrocytes (hemolytic activity).
**A:** 13.60

**Q:** # lookup: ED50, Erythrocytes (hemolytic activity) of C=C(C)CC[C@@H](OC(C)=O)[C@]1(C)OC(=O)C23CC=C4[C@@H](CC[C@H]5C(C)(C)[C@@H](O[C@@H]6OC[C@@H](O[C@@H]7OC[C@@H](O)[C@H](O[C@@H]8O[C@H](CO)[C@@H](O)[C@H](O)[C@H]8O)[C@H]7O)[C@H](O)[C@H]6O[C@@H]6O[C@H](C)[C@@H](O[C@@H]7OC[C@@H](O)[C@H](O[C@@H]8O[C@H](CO)[C@@H](O)[C@H](OC)[C@H]8O)[C@H]7O)[C@H](O)[C@H]6O)CC[C@]45C)[C@]2(C)C[C@H](OC(C)=O)[C@@H]31 (some centres unmarked) [Cladoloside D (18), Cladoloside D]
**A:** 0.29

**Q:** Record request: ED50, Erythrocytes (hemolytic activity) value, item C=C(C)CC[C@@H](OC(C)=O)[C@]1(C)OC(=O)C23CC=C4[C@@H](CC[C@H]5C(C)(C)[C@@H](O[C@@H]6OC[C@@H](O)[C@H](O)[C@H]6O[C@@H]6O[C@H](C)[C@@H](O[C@@H]7OC[C@@H](O)[C@H](O[C@@H]8O[C@H](CO)[C@@H](O)[C@H](OC)[C@H]8O)[C@H]7O)[C@H](O)[C@H]6O)CC[C@]45C)[C@]2(C)C[C@H](OC(C)=O)[C@@H]31 (some centres unmarked) [A2 (6), cladoloside A2]
**A:** 2.78

**Q:** What ED50, Erythrocytes (hemolytic activity) value was documented for this compound, C=C(C)CC[C@@H](OC(C)=O)[C@]1(C)OC(=O)C23CC=C4[C@@H](CC[C@H]5C(C)(C)[C@@H](O[C@@H]6OC[C@@H](O[C@@H]7O[C@H](CO)[C@@H](O)[C@H](O)[C@H]7O)[C@H](O)[C@H]6O[C@@H]6O[C@H](C)[C@@H](O[C@@H]7OC[C@@H](O)[C@H](O[C@@H]8O[C@H](COS(=O)(=O)[O-])[C@@H](O)[C@H](OC)[C@H]8O)[C@H]7O)[C@H](O)[C@H]6O)CC[C@]45C)[C@]2(C)C[C@H](OC(C)=O)[C@@H]31.[Na+] (some centres unmarked) [I2 (29), cladoloside I2] ?
**A:** 4.24
